Test system: SK-MEL-28 melanoma
Assay: NCI-60 one-dose screen, 48 h
Conditions: 10 µM unless noted
This is part of a sample that, as a whole, favours compounds with a hit. Of some 83,000 tested, about 20% had one in any assay. Calls of active or inactive are those of the source. Rule for the calls: active = growth percent below 10; inactive = the rest.
Answer with one of the outcomes given here: yes for active, no for inactive

Compound	Assigned label
COc1ccc(/C=C/C(c2cc(OC)c(OC)c(OC)c2)n2cncn2)cc1 (stereo not given)	no
CN1CCN(Cc2ccc(NC(=O)c3cncc(C#Cc4cnc(N)c5ncccc45)c3)cc2C(F)(F)F)CC1	yes
COc1ccc(CCN(CC(=O)N(CC(N)=O)C2CCC[C@@H]2OCc2ccccc2)C(=O)CN(C(=O)CN(CCc2ccc(Cl)cc2)C(=O)CN(C(=O)CN(C)Cc2ccccc2F)[C@H](C)C2CCCCC2)[C@H](C)C2CCCCC2)cc1OC (stereo not given in full)	no
CCC1S/C(=N\N=C(\C)c2cc3cc(Cl)ccc3o2)N(c2ccccc2)C1=O (stereo not given)	no
Oc1c(CN2CCCC2)cc(CSCc2ccccc2)c2cccnc12	no

Please share the test call associated with O=C(Nc1ccccc1O)c1ccc(CNC(=O)c2ccsc2Nc2ccnc(C(F)(F)F)c2)cc1 .
no

Please share the test call associated with CC1(C)C(N)=Nc2cc(OCCCN3Cc4ccccc4C3)c(OCC3CC3)cc21 .
no

Please share the test call associated with Cc1c(Cl)cccc1C(=O)Nc1nc2c(s1)CN(C(=O)c1ccc(C(F)(F)F)cc1)CC2 .
no

###

Exercise: state measured growth for each of the compounds provided.
System: ACHN renal
Test: NCI-60 one-dose screen, 48 h (100 = growth as untreated, 0 = no growth, -100 = all killed)
Conditions: 10 µM unless noted
Compounds without any hit were thinned out: in the full panel of roughly 83,000, 20% have a hit.
One number for each entry, in %.

Some entries whose results are on file:
Cpd smiles	growth / %
COC(=O)CCC/C=C\C[C@H]1C=CC(=O)/C1=C/C[C@@H](O)C/C=C\CC(F)(F)F	-47.7
CCOC(=O)c1ccccc1-c1c2ccc(=[N+](C)C)cc-2oc2cc(N(C)C)ccc12	6.36
C/C(=N\O)c1ccc(NC(=O)CSc2nnc(-c3cc(-c4ccc(S(C)(=O)=O)cc4)nc4ccccc34)n2-c2ccccc2)cc1	90.8

Batch of 2 compounds: report growth for each.
1. N#C/C(=C\c1ccc([N+](=O)[O-])cc1)n1nnc2cc(F)c(F)cc21
2. Cc1ccc(CNc2c3ccccc3nc3ccccc23)cc1

1. -74.9
2. 14

###

Tested on: BT-549 breast
Test: NCI-60 one-dose screen, 48 h
Conditions: 10 µM unless noted
Experimental: Growth inhibition of the BT-549 human tumor cell line is measured as a screen for anti-cancer activity. Cells are grown in 96 well plates and exposed to the test compound for 48 hours. Compounds are tested at a single concentration, which is 10^-5 M for most compounds. The reported endpoint is percent growth (GI% or GIPRCNT), where numbers from 0 - 100% represent growth inhibition, and numbers from -100% - 0 represent cell death. For example, a value of 40 represents 60% growth inhibition. […]
The panel holds about 83,000 compounds, 20% with a hit somewhere; the sample as a whole holds those more often. Activity calls are given as the source filed them. How the source made its calls: active means growth percent below 10; inactive means the rest.
Answer with one of the outcomes given here: active, inactive

The examples below pair each entry with its known result.
Compound	Target or system	Assigned label
CCNc1ccc(-c2nc3ccccc3n3cccc23)cc1	BT-549 breast	inactive
NC(N)=NS(=O)(=O)c1ccc(NC2=C(I)C(=O)c3ncccc3C2=O)cc1	BT-549 breast	inactive
N#Cc1cccc(C2C3=C(COC3=O)N(CCO)c3cc4c(cc32)CCC4)c1 (stereo not given)	BT-549 breast	inactive
O=C(Cc1ccc(/C=C/C(=O)c2ncc[nH]2)cc1)Nc1cc(C(F)(F)F)cc(C(F)(F)F)c1	BT-549 breast	inactive

Okay, next one:
Please share the test call associated with COc1ccc(C2=CC(c3cc(OC)c(OC)c(OC)c3)n3ncnc3N2)cc1 (stereo not given) .
active

###

Tested on: OVCAR-4 ovarian
Assay: NCI-60 one-dose screen, 48 h
Conditions: 10 µM unless noted
This is part of a sample that, as a whole, favours compounds with a hit. Of some 83,000 tested, about 20% had one in any assay. The source made the active and inactive calls. Rule for the calls: active = growth percent below 10; inactive = the rest.
Answer with one of the outcomes given here: active, inactive

Compound	Assigned label
COc1ccccc1N(C(C)=O)C1=C(Cl)C(=O)c2ccccc2C1=O	inactive
CCOC(=O)c1nn(CC(O)c2ccccc2)c(NC(=O)Nc2cccc(F)c2)c1C (configuration not stated)	inactive
O=c1c2ccccc2c(=O)c2c1sc1c(=O)c3ccc(O)cc3c(=O)c12	active
O=C(Nc1ncc(Cc2cc(C(F)(F)F)ccc2Cl)s1)c1cccs1	inactive
O=C(N/N=C/c1cc(Cl)ccc1O)c1ccccc1Nc1ccnc(C(F)(F)F)c1	inactive

Please share the test call associated with COc1ccc(/C=C2\COc3ccc(O)cc3C2=O)cc1 .
inactive

Please share the test call associated with C[C@@H]1O[C@@H](O[C@@H]2C[C@H](c3ccc4c(c3O)C(=O)C3=C(C4=O)[C@@]4(O)C(=O)C[C@](C)(O)C[C@@]4(O)C=C3)O[C@H](C)[C@H]2O)CC[C@@H]1O[C@H]1C[C@@H](O)[C@H](O)[C@@H](C)O1 .
inactive

Please share the test call associated with C=C(C)[C@@H]1CC[C@]2(C(=O)N3CCN(C)CC3)CC[C@]3(C)[C@H](CC[C@@H]4[C@@]5(C)CC[C@H](OC(=O)c6ccccc6C(=O)O)C(C)(C)[C@@H]5CC[C@]43C)[C@@H]12 .
inactive

Please share the test call associated with Cc1ccc(S(=O)(=O)Oc2ccc3sc4cccc(NCCN(C)C)c4c(=O)c3c2)cc1 .
active

Please share the test call associated with CCOC(=O)CC1CSC(Nc2ccccc2)=N1 (configuration not stated) .
inactive

###

Tested on: TK-10 renal
Test: NCI-60 one-dose screen, 48 h (100 = growth as untreated, 0 = no growth, -100 = all killed)
Conditions: 10 µM unless noted
This is part of a sample that, as a whole, favours compounds with a hit. Of some 83,000 tested, about 20% had one in any assay.
Reported endpoint: growth (%)
Numbers only, in %.

Some entries whose results are on file:
Cpd smiles	growth [%]
Cn1cc(-c2ccc(-c3cn(C)c4ccc(Cl)cc34)[nH]2)c2cc(Cl)ccc21	-28.7
CCOc1cccc(/C=N/NC(=O)c2cccc(Nc3ccnc(C(F)(F)F)c3)c2)c1O	49.5
Cc1ccc(-c2nc3nc(-c4ccccc4)nc(N4CCCN(S(C)(=O)=O)CC4)c3o2)cc1	66.9

Batch of 6 compounds: report growth for each.
1. COc1cccc(Nc2ncnc3cc(NC(=O)CCl)ccc23)c1
2. C=C1C(=O)O[C@H]2[C@H]1CC/C(COC(=O)NCc1ccc(Cn3c(=O)sn(-c4ccc(C#N)cc4)c3=O)cc1)=C\CC[C@@]1(C)O[C@@H]21
3. N#C/C(=C\c1cn(Cc2ccccc2)c2ccccc12)C(=O)Nc1ncc(Cc2ccccc2Cl)s1
4. O=C(Nc1ccc(Br)cc1)C1=NCCCCN1
5. COc1ccc2nc(Cl)c(/C=C3\CC(c4ccccc4)=NN(c4ccccc4)C3=O)cc2c1
6. O=C(C1=Cc2cc3ccccc3n2Cc2cnnn21)c1ccc(O)cc1

-13.2
48.9
6.29
93.4
78.6
90.9

###

Test system: SF-268 CNS
Assay: NCI-60 one-dose screen, 48 h
Settings: 10 µM unless noted
This is part of a sample that, as a whole, favours compounds with a hit. Of some 83,000 tested, about 20% had one in any assay. Calls of active or inactive are those of the source. How the source made its calls: active means growth percent below 10; inactive means the rest.
Answer with one of the outcomes given here: TRUE for active, FALSE for inactive

The examples below pair each entry with its known result.
Molecule	Assigned label
Clc1ccc(-c2cc(-c3ccccc3)nc(NCCNc3ccnc4cc(Cl)ccc34)n2)cc1	TRUE
COc1ccc(C2=CN3CC=CC3CC2=O)cc1 (stereo not drawn)	FALSE
CCOC(=O)C(=Cc1ccc(-c2ccccc2)cc1)C(=O)OCC	FALSE
CNC(C)[C@H]1CCC2C3CC=C4C(=O)[C@@H](NC(=O)C=C(C)C)CC[C@]4(C)C3CC[C@@]21C (stereo partly drawn)	TRUE
CN1CCN(CC(=O)Nc2ccc3ncnc(Nc4ccc(Oc5cccc(C(F)(F)F)c5)c(Cl)c4)c3c2)CC1	FALSE
COc1cc(-c2nc3c(ncc4ccc(=O)n(-c5ccccc5)c43)s2)cc(OC)c1OC	FALSE

Please share the test call associated with Cc1ccc(-c2csc(NC(=O)c3ccccc3CN3C(=O)c4ccccc4C3=O)n2)cc1 .
FALSE

###

Tested on: SF-295 CNS
Test: NCI-60 one-dose screen, 48 h
Details: 10 µM unless noted
The panel holds about 83,000 compounds, 20% with a hit somewhere; the sample as a whole holds those more often. Calls of active or inactive are those of the source. The calls were made as follows: active = growth percent below 10; inactive = the rest.
Answer with one of the outcomes given here: active, inactive

Compound	Assigned label
Cc1nc2c(c(=O)[nH]1)C(c1ccccc1)c1ccc3ccccc3c1O2 (centres undefined)	inactive
Cc1nc2sc(C(=O)Nc3cccc(Br)c3C)c(N)c2cc1C(O)c1ccccc1 (centres undefined)	inactive
CC1(C)CC[C@]23CC[C@]4(C)[C@H](CC[C@@H]5[C@@]6(C)C/C(=C/c7ccncc7)C(=O)C(C)(C)[C@@H]6CC[C@]54C)[C@H]2[C@H]1OC3	inactive
O=C(C1CCCCC1)[C@@H]1[C@]2(C(=O)NC3CCCCC32)[C@@H]2CCCN2[C@@]12C(=O)NC1CCC(Cl)CC12 (some centres undefined)	active
N#CC1CCc2c(c(-c3ccc4nc(N)sc4c3)nc3ccc4[nH]ncc4c23)C1 (centres undefined)	inactive

Please share the test call associated with O=C(CCCCCCN1CC(=O)N2[C@H](c3ccc(Cl)cc3)c3[nH]c4ccccc4c3C[C@@H]2C1=O)NO .
inactive

Please share the test call associated with S=C(c1ccc2c(c1)OCO2)N1CCN(c2cccc(Cl)c2)CC1 .
active

Please share the test call associated with C=CCC(CCCC)(C(=O)OCC)C(=O)OCC .
inactive
